Target: T1, formyl peptide receptor 2 (FPR2) (UniProt P25090 1-351, limits assumed)
T1 sequence (looked up): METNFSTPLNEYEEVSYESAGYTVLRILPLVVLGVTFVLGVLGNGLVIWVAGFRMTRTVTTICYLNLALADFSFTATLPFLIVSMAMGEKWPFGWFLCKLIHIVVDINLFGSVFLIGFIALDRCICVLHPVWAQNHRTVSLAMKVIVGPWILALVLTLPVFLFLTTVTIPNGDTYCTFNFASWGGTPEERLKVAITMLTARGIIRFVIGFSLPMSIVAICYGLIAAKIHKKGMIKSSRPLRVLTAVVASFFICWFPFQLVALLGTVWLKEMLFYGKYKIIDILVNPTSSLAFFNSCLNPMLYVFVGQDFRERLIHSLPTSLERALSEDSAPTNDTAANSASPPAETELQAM
Assay: cell-based or functional assay
EXPERIMENTAL ENDPOINT: EC50 for [Ca2+]

RWRYRVM (HELM PEPTIDE1{R.W.R.Y.R.V.[dM].[am]}$$$$V2.0; N-terminus assumed; SMILES CSCC[C@@H](NC(=O)[C@@H](NC(=O)[C@H](CCCNC(=N)N)NC(=O)[C@H](Cc1ccc(O)cc1)NC(=O)[C@H](CCCNC(=N)N)NC(=O)[C@H](Cc1c[nH]c2ccccc12)NC(=O)[C@@H](N)CCCNC(=N)N)C(C)C)C(N)=O) [peptide of SEQ ID NO 29]	< 10 nM

Any idea what EC50 for [Ca2+] was measured for RMRYKPM (HELM PEPTIDE1{[ac].R.M.R.Y.K.P.[dM].[am]}$$$$V2.0; SMILES CSCC[C@H](NC(=O)[C@H](CCCNC(=N)N)NC(C)=O)C(=O)N[C@@H](CCCNC(=N)N)C(=O)N[C@@H](Cc1ccc(O)cc1)C(=O)N[C@@H](CCCCN)C(=O)N1CCC[C@H]1C(=O)N[C@H](CCSC)C(N)=O) [peptide of SEQ ID NO 51] ?
< 10 nM

Follow-up entry: HMRYRVM (HELM PEPTIDE1{H.M.R.Y.R.V.[dM].[am]}$$$$V2.0; N-terminus assumed; SMILES CSCC[C@H](NC(=O)[C@@H](N)Cc1c[nH]cn1)C(=O)N[C@@H](CCCNC(=N)N)C(=O)N[C@@H](Cc1ccc(O)cc1)C(=O)N[C@@H](CCCNC(=N)N)C(=O)N[C@H](C(=O)N[C@H](CCSC)C(N)=O)C(C)C) [peptide of SEQ ID NO 31]
< 10 nM
